- Test system: Septoria tritici
- assay_text: B-9. Septoria tritici in vitro cell test
- Assay type: cell-based
- experimental_conditions: Zymoseptoria tritici, 168 h; 20 ppm of active ingredient; 7 days incubation; liquid culture, absorbance; read-out: efficacy (inhibition of fungal growth)
quantity: inhibition at 20 ppm

INSERT INTO assay_data (compound, tested_on, result) VALUES
  ('Cc1ccc(C(F)(F)CNC(=O)c2c(Oc3cccc(C4CC4)c3F)nnc3c2CCC3)c(C)c1', 'Septoria tritici', '90 to 100%'),
  ('O=C(NCC(F)(F)c1ccc(Br)cc1Cl)c1c(Oc2cccc(Cl)c2F)nnc2c1CCC2', 'Septoria tritici', '90 to 100%'),
  ('Cc1ccc(C(F)(F)CNC(=O)c2c(Oc3cccc(Cl)c3F)nnc3c2CCCC3)c(C)c1', 'Septoria tritici', '90 to 100%'),
  ('Cc1ccc(C(F)(F)CNC(=O)c2c(Oc3cccc(Cl)c3F)nnc3c2CCC3)c(Cl)c1', 'Septoria tritici', '90 to 100%'),
  ('Cc1ccc(C(F)(F)CNC(=O)c2c(Oc3cccc(C(F)F)c3)nnc3c2CCCC3)c(Cl)c1', 'Septoria tritici', '90 to 100%'),
  ('O=C(NCC(F)c1ccc(Cl)cc1Cl)c1c(Oc2cccc(C3CC3)c2)nnc2c1CCCC2 (stereo not shown)', 'Septoria tritici', '90 to 100%'),
  ('O=C(NCCc1ncc(Cl)cn1)c1c(Oc2cccc(C(F)(F)F)c2)nnc2ccccc12', 'Septoria tritici', '90 to 100%'),
  ('O=C(NCC(F)(F)c1ccc(Br)cc1Cl)c1c(Oc2cccc(C(F)(F)F)c2)nnc2c1COCC2', 'Septoria tritici', '90 to 100%'),
  ('O=C(NCC(F)c1ccc(Cl)cc1Cl)c1c(Oc2cccc(Cl)c2F)nnc2c1CCCC2 (stereo not shown)', 'Septoria tritici', '90 to 100%'),
  ('O=C(NCC(F)(F)c1ccc(Cl)cc1)c1c(Oc2cccc(C(F)F)c2)nnc2c1CCCC2', 'Septoria tritici', '80 to 89%'),
  ('Cc1cc(Br)ccc1C(F)(F)CNC(=O)c1c(Oc2cccc(Cl)c2F)nnc2c1CCCC2', 'Septoria tritici', '90 to 100%'),
  ('Cc1ccc(C(F)(F)CNC(=O)c2c(Oc3cccc(Cl)c3F)nnc3c2CCC3)c(C)c1', 'Septoria tritici', '90 to 100%'),
  ('O=C(NCC(F)c1ccc(Cl)cc1Cl)c1c(Oc2cccc(C(F)(F)F)c2)nnc2c1CCC2 (stereo not shown)', 'Septoria tritici', '90 to 100%'),
  ('O=C(NCC(F)(F)c1ccc(Br)cc1Cl)c1c(Oc2cccc(C(F)F)c2)nnc2c1CCCC2', 'Septoria tritici', '90 to 100%'),
  ('O=C(NCC(F)(F)c1ccc(Br)cc1Cl)c1c(Oc2cccc(C3CC3)c2F)nnc2c1CCCC2', 'Septoria tritici', '90 to 100%'),
  ('Cc1cc(Br)ccc1C(F)(F)CNC(=O)c1c(Oc2cccc(C(F)(F)F)c2)nnc2c1CCCC2', 'Septoria tritici', '90 to 100%'),
  ('Cc1ccc(C(F)(F)CNC(=O)c2c(Oc3cccc(C4CC4)c3F)nnc3ccccc23)c(C)c1', 'Septoria tritici', '80 to 89%'),
  ('Cc1ccc(C(F)(F)CNC(=O)c2c(Oc3cccc(C(F)(F)F)c3)nnc3cc(C)ccc23)c(Cl)c1', 'Septoria tritici', '80 to 89%'),
  ('O=C(NCC(F)c1ccc(Cl)cc1Cl)c1c(Oc2cccc(C3CC3)c2F)nnc2c1CCCC2 (stereo not shown)', 'Septoria tritici', '90 to 100%'),
  ('Cc1cccc(Oc2cnc3ccccc3c2C(=O)NCC(F)(F)c2ccc(C)cc2C)c1', 'Septoria tritici', '80 to 89%'),
  ('Cc1ccc(C(F)(F)CNC(=O)c2c(Oc3cccc(C(F)(F)F)c3)nnc3c2COCC3)c(Cl)c1', 'Septoria tritici', '90 to 100%'),
  ('O=C(NCC(F)c1ccc(Cl)cc1Cl)c1c(Oc2cccc(Cl)c2)nnc2c1CCCC2 (stereo not shown)', 'Septoria tritici', '90 to 100%'),
  ('Cc1ccc(C(F)(F)CNC(=O)c2c(Oc3cccc(Cl)c3)nnc3c2CCCC3)c(Cl)c1', 'Septoria tritici', '90 to 100%'),
  ('Cc1ccc(C(F)(F)CNC(=O)c2c(Oc3cccc(Br)c3)nnc3ccccc23)c(C)c1', 'Septoria tritici', '80 to 89%'),
  ('Cc1ccc(CCNC(=O)c2c(Oc3cccc(C4CC4)c3F)nnc3ccccc23)c(C)c1', 'Septoria tritici', '90 to 100%');
